# ASSAYED TARGET: human FXR (NR1H4) (Homo sapiens (Human))
# MEASUREMENT DESCRIPTION: Human FXR (NR1H4) Assay (Gal4 promoter driven luciferase reporter, CHO cells)
PROPERTY MEASURED: EC50

Look over these answered cases.
>>> assay_result("CC(C)(C)c1ccc(S(=O)(=O)NC(=O)Nc2ccc([C@@H]3C[C@H]3c3ccc(OCc4c(-c5c(Cl)cccc5Cl)noc4C4CC4)cc3Cl)cc2)cc1")
"0.1 to 1 µM"
>>> assay_result("O=C(NS(=O)(=O)C1CC1)c1ccc([C@@H]2C[C@H]2c2ccc(OCc3c(-c4c(Cl)cccc4Cl)noc3C3CC3)cc2Cl)cc1")
"0.1 to 1 µM"
>>> assay_result("CN(C)S(=O)(=O)NC(=O)Nc1ccc([C@@H]2C[C@H]2c2ccc(OCc3c(-c4c(Cl)cccc4Cl)noc3C3CC3)cc2Cl)cc1")
"1 to 10 µM"
>>> assay_result("CC(C)(C)c1ccc(S(=O)(=O)NC(=O)c2ccc([C@@H]3C[C@H]3c3ccc(OCc4c(-c5c(Cl)cccc5Cl)noc4C4CC4)cc3Cl)cc2)cc1")
"1 to 10 µM"

Okay, now this compound:
[ask] GET /values?readout=EC50&system=human FXR (NR1H4) (Homo sapiens (Human))&item= CN(C)S(=O)(=O)NC(=O)c1ccc([C@@H]2C[C@H]2c2ccc(OCc3c(-c4c(Cl)cccc4Cl)noc3C3CC3)cc2Cl)cc1
[reply] 0.1 to 1 µM

----------
# ASSAYED TARGET: human FXR (NR1H4) (Homo sapiens (Human), UniProt Q96RI1)
# Sequence (Q96RI1 whole entry, the tested form may be a part): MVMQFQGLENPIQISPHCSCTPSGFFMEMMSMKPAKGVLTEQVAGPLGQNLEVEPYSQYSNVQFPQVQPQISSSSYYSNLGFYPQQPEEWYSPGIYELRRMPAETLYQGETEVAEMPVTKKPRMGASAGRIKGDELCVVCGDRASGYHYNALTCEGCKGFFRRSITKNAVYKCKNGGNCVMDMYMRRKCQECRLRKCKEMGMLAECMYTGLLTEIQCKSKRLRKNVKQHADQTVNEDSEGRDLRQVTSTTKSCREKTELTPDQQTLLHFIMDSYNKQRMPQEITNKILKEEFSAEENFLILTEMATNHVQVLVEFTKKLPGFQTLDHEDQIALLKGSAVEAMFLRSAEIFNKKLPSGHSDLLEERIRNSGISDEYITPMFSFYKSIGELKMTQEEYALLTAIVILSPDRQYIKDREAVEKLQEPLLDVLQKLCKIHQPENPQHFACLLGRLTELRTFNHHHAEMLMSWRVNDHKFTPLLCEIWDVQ
# MEASUREMENT DESCRIPTION: Human FXR (NR1H4) Assay (Gal4 promoter driven luciferase reporter, CHO cells)
# Format: cell-based
# REPORTED CONDITIONS: FXR reporter assay in CHO cells; efficacy normalized to CDCA set as 100%
PROPERTY MEASURED: Efficacy (%)
Field: numeric (%). Do not append units.

Look over these answered cases.
>>> assay_result("CC(C)(C)c1ccc(S(=O)(=O)NC(=O)c2ccc([C@@H]3C[C@H]3c3ccc(OCc4c(-c5c(Cl)cccc5Cl)noc4C4CC4)cc3Cl)cc2)cc1")
115
>>> assay_result("O=C(NS(=O)(=O)C1CC1)c1ccc([C@@H]2C[C@H]2c2ccc(OCc3c(-c4c(Cl)cccc4Cl)noc3C3CC3)cc2Cl)cc1")
209
>>> assay_result("CN(C)S(=O)(=O)NC(=O)c1ccc([C@@H]2C[C@H]2c2ccc(OCc3c(-c4c(Cl)cccc4Cl)noc3C3CC3)cc2Cl)cc1")
271
>>> assay_result("CC(C)(C)c1ccc(S(=O)(=O)NC(=O)Nc2ccc([C@@H]3C[C@H]3c3ccc(OCc4c(-c5c(Cl)cccc5Cl)noc4C4CC4)cc3Cl)cc2)cc1")
236

Okay, now this compound:
[ask] Which value of Efficacy (%) has been reported for CN(C)S(=O)(=O)NC(=O)Nc1ccc([C@@H]2C[C@H]2c2ccc(OCc3c(-c4c(Cl)cccc4Cl)noc3C3CC3)cc2Cl)cc1 in the records?
[reply] 194

// provenance: patent US10144729B2
